Just for reference, the supplement of paper PMC7125110 is where these values come from.

B1: glmS ribozyme (parent)
chain: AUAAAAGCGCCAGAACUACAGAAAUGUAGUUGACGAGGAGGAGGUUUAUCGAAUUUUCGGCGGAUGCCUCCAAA

# Variants of: B1
# assay.summary: self-cleavage kobs at 640 uM GlcN6P; higher = faster cleavage; RNA array
# conditions: with glucosamine-6-phosphate
Variants at the floor of the assay were thinned out.
Think of 0.0002 s⁻¹ as a floor: if self-cleavage kobs at 640 uM GlcN6P stands on it or above, it is satisfied; beneath it, not satisfied.

Enquiry: Assess whether reported self-cleavage kobs at 640 uM GlcN6P for U31C G38U A39C G43U G62A U69G sits at 0.0002 s⁻¹ or higher.
Return: not satisfied

Enquiry: Assess whether reported self-cleavage kobs at 640 uM GlcN6P for A53C U54C sits at 0.0002 s⁻¹ or higher.
Return: satisfied

Enquiry: Assess whether reported self-cleavage kobs at 640 uM GlcN6P for A42G A53U sits at 0.0002 s⁻¹ or higher.
Return: satisfied

Enquiry: Assess whether reported self-cleavage kobs at 640 uM GlcN6P for A12U A15C A42G sits at 0.0002 s⁻¹ or higher.
Return: satisfied

Enquiry: Assess whether reported self-cleavage kobs at 640 uM GlcN6P for A39G A64C U69G C71U sits at 0.0002 s⁻¹ or higher.
Return: not satisfied

Enquiry: Assess whether reported self-cleavage kobs at 640 uM GlcN6P for C11U U65A sits at 0.0002 s⁻¹ or higher.
Return: not satisfied

Enquiry: Assess whether reported self-cleavage kobs at 640 uM GlcN6P for A6G C16U G32C G41U C68U sits at 0.0002 s⁻¹ or higher.
Return: not satisfied

Enquiry: Assess whether reported self-cleavage kobs at 640 uM GlcN6P for U30A U65G sits at 0.0002 s⁻¹ or higher.
Return: satisfied

Enquiry: Assess whether reported self-cleavage kobs at 640 uM GlcN6P for C16A U31C sits at 0.0002 s⁻¹ or higher.
Return: not satisfied

Enquiry: Assess whether reported self-cleavage kobs at 640 uM GlcN6P for G7C C8G C10U C70G sits at 0.0002 s⁻¹ or higher.
Return: satisfied

Enquiry: Assess whether reported self-cleavage kobs at 640 uM GlcN6P for C8U A15U A48C A52C C70U sits at 0.0002 s⁻¹ or higher.
Return: not satisfied

Enquiry: Assess whether reported self-cleavage kobs at 640 uM GlcN6P for G43A G44A sits at 0.0002 s⁻¹ or higher.
Return: not satisfied

Enquiry: Assess whether reported self-cleavage kobs at 640 uM GlcN6P for C70A C71U sits at 0.0002 s⁻¹ or higher.
Return: not satisfied

Enquiry: Assess whether reported self-cleavage kobs at 640 uM GlcN6P for G38A G62U sits at 0.0002 s⁻¹ or higher.
Return: not satisfied

Enquiry: Assess whether reported self-cleavage kobs at 640 uM GlcN6P for G29A G41U A53C C58A sits at 0.0002 s⁻¹ or higher.
Return: not satisfied

Enquiry: Assess whether reported self-cleavage kobs at 640 uM GlcN6P for G9A A48U C50A sits at 0.0002 s⁻¹ or higher.
Return: not satisfied

Enquiry: Assess whether reported self-cleavage kobs at 640 uM GlcN6P for C8U U47C A48C C67G sits at 0.0002 s⁻¹ or higher.
Return: not satisfied

Enquiry: Assess whether reported self-cleavage kobs at 640 uM GlcN6P for C34G U45A U57C sits at 0.0002 s⁻¹ or higher.
Return: not satisfied

Enquiry: Assess whether reported self-cleavage kobs at 640 uM GlcN6P for G9A A36U C68U sits at 0.0002 s⁻¹ or higher.
Return: not satisfied

Enquiry: Assess whether reported self-cleavage kobs at 640 uM GlcN6P for G32A G43A U57G sits at 0.0002 s⁻¹ or higher.
Return: not satisfied

Enquiry: Assess whether reported self-cleavage kobs at 640 uM GlcN6P for A12C C58U C70U sits at 0.0002 s⁻¹ or higher.
Return: not satisfied

Enquiry: Assess whether reported self-cleavage kobs at 640 uM GlcN6P for A6G A53U sits at 0.0002 s⁻¹ or higher.
Return: not satisfied

Enquiry: Assess whether reported self-cleavage kobs at 640 uM GlcN6P for C8U A53G U55A C68G sits at 0.0002 s⁻¹ or higher.
Return: satisfied

Enquiry: Assess whether reported self-cleavage kobs at 640 uM GlcN6P for C70G C71U sits at 0.0002 s⁻¹ or higher.
Return: not satisfied

Enquiry: Assess whether reported self-cleavage kobs at 640 uM GlcN6P for A14U G35C sits at 0.0002 s⁻¹ or higher.
Return: not satisfied

Enquiry: Assess whether reported self-cleavage kobs at 640 uM GlcN6P for A6G A15G sits at 0.0002 s⁻¹ or higher.
Return: not satisfied

Enquiry: Assess whether reported self-cleavage kobs at 640 uM GlcN6P for A6G A39U C70A sits at 0.0002 s⁻¹ or higher.
Return: not satisfied

Enquiry: Assess whether reported self-cleavage kobs at 640 uM GlcN6P for U31A U57A sits at 0.0002 s⁻¹ or higher.
Return: not satisfied

Enquiry: Assess whether reported self-cleavage kobs at 640 uM GlcN6P for C34G U47A sits at 0.0002 s⁻¹ or higher.
Return: not satisfied

Enquiry: Assess whether reported self-cleavage kobs at 640 uM GlcN6P for U30C U54A sits at 0.0002 s⁻¹ or higher.
Return: not satisfied

Enquiry: Assess whether reported self-cleavage kobs at 640 uM GlcN6P for `C50G` sits at 0.0002 s⁻¹ or higher.
Return: satisfied

Enquiry: Assess whether reported self-cleavage kobs at 640 uM GlcN6P for A33C G37C sits at 0.0002 s⁻¹ or higher.
Return: not satisfied

Enquiry: Assess whether reported self-cleavage kobs at 640 uM GlcN6P for U46C U55G sits at 0.0002 s⁻¹ or higher.
Return: satisfied

Enquiry: Assess whether reported self-cleavage kobs at 640 uM GlcN6P for U46C U55C sits at 0.0002 s⁻¹ or higher.
Return: satisfied

Enquiry: Assess whether reported self-cleavage kobs at 640 uM GlcN6P for A14G G38C G44A sits at 0.0002 s⁻¹ or higher.
Return: not satisfied

Enquiry: Assess whether reported self-cleavage kobs at 640 uM GlcN6P for A15G C16A C70U sits at 0.0002 s⁻¹ or higher.
Return: not satisfied

Enquiry: Assess whether reported self-cleavage kobs at 640 uM GlcN6P for A14U A36G G66U sits at 0.0002 s⁻¹ or higher.
Return: not satisfied

Enquiry: Assess whether reported self-cleavage kobs at 640 uM GlcN6P for C34U C58G U65G C70A sits at 0.0002 s⁻¹ or higher.
Return: not satisfied

Enquiry: Assess whether reported self-cleavage kobs at 640 uM GlcN6P for A12C G66U sits at 0.0002 s⁻¹ or higher.
Return: satisfied

Enquiry: Assess whether reported self-cleavage kobs at 640 uM GlcN6P for C11G U31A sits at 0.0002 s⁻¹ or higher.
Return: not satisfied

Enquiry: Assess whether reported self-cleavage kobs at 640 uM GlcN6P for G41C C50U sits at 0.0002 s⁻¹ or higher.
Return: not satisfied

Enquiry: Assess whether reported self-cleavage kobs at 640 uM GlcN6P for G38U G60C sits at 0.0002 s⁻¹ or higher.
Return: not satisfied

Enquiry: Assess whether reported self-cleavage kobs at 640 uM GlcN6P for A42U G62U sits at 0.0002 s⁻¹ or higher.
Return: not satisfied

Enquiry: Assess whether reported self-cleavage kobs at 640 uM GlcN6P for `U55A` sits at 0.0002 s⁻¹ or higher.
Return: satisfied

Enquiry: Assess whether reported self-cleavage kobs at 640 uM GlcN6P for U46G C71U sits at 0.0002 s⁻¹ or higher.
Return: satisfied

Enquiry: Assess whether reported self-cleavage kobs at 640 uM GlcN6P for A39U A42G sits at 0.0002 s⁻¹ or higher.
Return: satisfied
